Target sequence: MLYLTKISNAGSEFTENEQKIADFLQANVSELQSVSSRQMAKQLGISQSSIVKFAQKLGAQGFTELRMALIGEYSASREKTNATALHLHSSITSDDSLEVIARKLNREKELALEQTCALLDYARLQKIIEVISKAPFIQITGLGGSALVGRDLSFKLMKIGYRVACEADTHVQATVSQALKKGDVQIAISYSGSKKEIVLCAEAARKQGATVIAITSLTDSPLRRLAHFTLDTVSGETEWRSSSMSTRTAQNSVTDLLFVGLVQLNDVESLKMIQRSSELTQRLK
endpoint-name: pKd
Would you please state pKd, meaning minus log10 of the concentration in mol/L, as a bare number?

q: Which pKd value is on record for CC(=O)N[C@H]1C(O)O[C@H](COP(=O)(O)O)[C@@H](O)[C@@H]1O (stereo partly shown) [GlcNAc-6-P, N-acetylglucosamine-6-phosphate] ?
a: 4.75
